- Experimental Target: FRMPD3, Q5JV73
- Sequence (Q5JV73 12-100): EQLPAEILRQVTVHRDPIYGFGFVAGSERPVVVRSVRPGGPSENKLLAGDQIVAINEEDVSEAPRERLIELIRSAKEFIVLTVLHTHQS
- Assay Explanation: holdup assay
- Set-up: key: below the threshold = too weak to quantify, mostly under pKd 3.1 to 4
- Assay Context: plain residues with an end cap or a label only (N-terminal biotin on a linker: ttds)
Attribute Measured: pKd

binder="PVRVCEETSL [OTULIN, Q96BN8]" result=3.81
binder="RPLPRKVSQL [DOCK4, Q8N1I0]" result="below the threshold"
binder="SSLQSLETSV [ATP2B4, P23634]" result="below the threshold"
binder="RHTTSTETAV [HPV30-E6, P36809]" result=3.76
